Biological target: SARS‐CoV 3CL protease (Severe acute respiratory syndrome coronavirus, UniProt P0C6X7)
Experiment: biochemical
Assay type: biochemical
assay_readout: Ki

                                   molecule  assay_readout  data_value
0  Oc1c(Cl)cc(Cl)c(Cl)c1Cc1c(O)c(Cl)cc(Cl)c1Cl [Hexachlorophene]             Ki    13700 nM
1  C[CH2][Hg][S]c1ccccc1C(=O)[O-].[Na+] [Thimerosal]             Ki     2400 nM
2                            [Zn+2] [Zn^2+]             Ki     1100 nM
3                            [Cu+2] [Cu^2+]             Ki     4900 nM
4  CC(=O)[O][Hg][c]1ccccc1 [Phenylmercuric acetate]             Ki      700 nM

----------
Molecular target: SARS‐CoV 3CL protease (Severe acute respiratory syndrome coronavirus)
Test: biochemical
Type: biochemical
assay_readout: inhibition of 3CL protease activity

   smiles_entry                        assay_readout       data_value
0        [Zn+2]  inhibition of 3CL protease activity        effective
1        [Ni+2]  inhibition of 3CL protease activity  did not inhibit
2        [Mn+2]  inhibition of 3CL protease activity  did not inhibit
3        [Co+2]  inhibition of 3CL protease activity  did not inhibit
4        [Hg+2]  inhibition of 3CL protease activity        effective
5        [Mg+2]  inhibition of 3CL protease activity  did not inhibit
6        [Cu+2]  inhibition of 3CL protease activity        effective
